System: Saccharomyces cerevisiae
Assay: protein stability index of tFT-peptide fusion (C-terminal peptide) (PSI (0-1 scale)); higher = more stable (slower turnover);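 further: PSI is a weighted mean of sequencing reads over stability bins, variants kept only with over 10 reads, mCherry proximal and sfGFP distal, peptide attached via GGGS linker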
Details: genetic background: wild type; temperature: 30 C
Where protein stability index equals or exceeds 0.6, the correct label is T; where it does not, the label is F.

residueCodes | assignedLabel
PPPSPPLPIPPS | T
PLPSAPLLPPPP | T
GTLYLRVTSKEK | T
MLFLGPRLVVPA | F
RKNSQKILKLSG | F
FFSLRRAVTVSA | F
SVRWFLIGCGGA | F
WVFVVWFVFVVG | F
SFTPPRVCLCFS | F
KKKKRKNNITKK | T
PLFFLPLPPPLF | T
QWLGRDLKSREL | T
AGGAGGCRGWSI | T
YILLRWVNLSCL | F
YSPSPPSFAFSS | T
VLAGVVGQARWW | T
PPPHPPRPPVPR | T
DLWDDVAYVIVA | T
HDRRKAFHVVWL | T
FGFFRLVIVCFR | F
FSTLLVSPLQAS | T
GGLLSTVVVRVL | F
DRQGMIGLKYVK | T
HLSCVSVSVRGS | T
LIFACIYFSGVV | T
THSPSPTTAPIP | T
PYRWQTRPDAVD | T
VGRTNHSRVFRT | T
PLLLYFLPPLPL | T
GSAVMLGVSVRV | F
WCNLSFEDNYVT | T
PPRPPPNTPLPA | T
SLSIFCLMLMLF | F
KVPNEIKRYVFI | T
VCGCWWWCGVGW | T
KRGKKNEESRRD | T

* * *

Test system: Saccharomyces cerevisiae
Test: protein stability index of tFT-peptide fusion (C-terminal peptide) (PSI (0-1 scale)); higher = more stable (slower turnover)
Conditions: genetic background: wild type; temperature: 30 C
measurementKind: protein stability index

residueCodes | assayTarget | measurementKind | readoutValue
VIYYVRVGLVLS | Saccharomyces cerevisiae | protein stability index | 0.117
GLFAVWVVGVWC | Saccharomyces cerevisiae | protein stability index | 0.111
AFSISPFRLRMV | Saccharomyces cerevisiae | protein stability index | 0.293

* * *

System: Saccharomyces cerevisiae
Experiment: protein stability index of tFT-peptide fusion (C-terminal peptide) (PSI (0-1 scale)); higher = more stable (slower turnover)
Settings: genetic background: doa10 deletion; temperature: 30 C
protein stability index values, listed per item

residueCodes | protein stability index
LVVIYPLLSSPV | 0.402
LYLGCVLFVLFR | 0.273
LPLPPPGSPPPL | 0.659
GCLFMQVSLFWR | 0.177
LLVCLGYFLFLG | 0.338
VPTRRRGNRRPA | 0.641
IHTFSVVVVVAA | 0.0749
GMGHLSNVCLKT | 0.636
FILATGKGRWVV | 0.266
FCSFSWFLFLRS | 0.599
TFRVLAFFCRVV | 0.308
GFVISSCRLFIL | 0.272
KKKEIIKIIKIN | 0.0624
LCVVVICCLMAR | 0.0806
FPCIFFFCLFIL | 0.31
SVVYSVWIYLLH | 0.175
CVISLVTAVRLF | 0.405
FIRLTFLRLSCI | 0.183
WFLFVLCAWGFF | 0.263
VLVTFFIRSGVS | 0.311
VRGWLAYLRWII | 0.195
GFVLLCFCCRTW | 0.248
LFFPLPGILSFF | 0.484
LSGIILGWSVSG | 0.631
PPPPPPPFLFFL | 0.458
LPHPLPFCFSLY | 0.427
EFWWPFDRRGVI | 0.721

* * *

Tested on: Saccharomyces cerevisiae
Experiment: protein stability index of tFT-peptide fusion (C-terminal peptide) (PSI (0-1 scale)); higher = more stable (slower turnover)
Settings: genetic background: doa10 deletion; temperature: 30 C
Where protein stability index equals or exceeds 0.2, the correct label is YES; where it does not, the label is NO.

residueCodes | assignedLabel
YYKGGYLYLRLS | NO
LGFSHTRAIFFV | NO
MCRMYELYVTSS | YES
FGFFRLVIVCFR | NO
FFSLMFVFLTVF | NO
LAFMYFVCPRLA | YES
LLILSVRPFVFV | YES
VFRLLLFFVFVF | YES
LRFVCALGYCVW | YES
VCVFFRLCIVWY | NO

* * *

System: Saccharomyces cerevisiae
Experiment: protein stability index of tFT-peptide fusion (C-terminal peptide) (PSI (0-1 scale)); higher = more stable (slower turnover)
Conditions: genetic background: doa10 deletion; temperature: 30 C

residueCodes | protein stability index
CIVFVYCLFSCP | 0.209
LINHSWLLLSVL | 0.142
LYSVLWFCFPLV | 0.442
LNVEEGGGLENV | 0.661
SIPFWPVLFFLL | 0.0877
WISVRIFISCFF | 0.192
LFLSFLLFVLAF | 0.302
LACGIDGYYWRH | 0.663
AGESLRAIAVLY | 0.258
VFFTSLPPLLRA | 0.341
GGGVGVVWVRLG | 0.0905
LDLSSVFILYFN | 0.265
SIIRHLFHPSST | 0.65
FIFYYTVLLLCR | 0.13
CSPAFRPIVFVL | 0.18
VVVHFVLVCSTS | 0.116
RDYIAAKLVVCG | 0.267
LCFRLVSYLCIN | 0.223
LRFMLLSFLVIL | 0.24
GIFVWWFWGCCG | 0.293
RARRFGKWERSG | 0.33
FMPFSLLALFVW | 0.232
CLCFFLICFILF | 0.248
NAPSAIQKNKKC | 0.211
SSFFFLFCFFPS | 0.444
RLILAIVVSGGL | 0.252
GWLVGLGLVFFT | 0.488
TSLPPSPPPSPT | 0.373
QGGTWKKLVKMI | 0.0823
VAFILVVCKGIG | 0.122
AFCGRRGHQFYN | 0.144
FFVISVVLCLLV | 0.325
TLLSSIFLCLVL | 0.466
SFQLVFLCVLIW | 0.203
KLCVGLVLSFVC | 0.176
DRRYIISLIYIL | 0.0892
FLFPFLSVLFLL | 0.176
VLGPRFCFVCHA | 0.223
VWVAWLGGAILA | 0.174
SSVLLMFFCFVC | 0.159
RFVLVFLVSLII | 0.364
VSVVLKTQRVVC | 0.3
GVQFRRPLIPIY | 0.325
VCSRWFFVFVVR | 0.409
GVVCVLGFALFV | 0.28
NQIIRLIVGLLC | 0.193
FLFSVVFFFFSL | 0.322
PKRNNRKAQQIS | 0.249
YPVAWSSAIIIR | 0.423
PSLVFLPPPPPR | 0.681
SVFGLLSVCFFY | 0.358
PYPPTSLPPTWQ | 0.678
GLCLFLIGVFSV | 0.21
LLLVPLLAFSAS | 0.462
SSFPGPPLPPDP | 0.682
VFLACSMTGGDA | 0.413
FGVLLVWWYGLF | 0.189
FVMTYCLMSVSK | 0.063
GAVKCLVCLAVW | 0.26
CRLCVFGVWFCG | 0.448
REAFVVLAVFFH | 0.193
CLFHQFITLLVN | 0.0508
WDLYFSVVYRVV | 0.0435
VFLPVMVFFTFS | 0.255
NECLSSKWLRIC | 0.0791
GTMGWYSISRRL | 0.659
FLSCSRRPLRCW | 0.273
WVRLWGVLEAQG | 0.344
CLCVLVSFFFGL | 0.316
VLLSSSLVFLIS | 0.385
FFFFSMFSFFIP | 0.438

* * *

System: Saccharomyces cerevisiae
Test: protein stability index of tFT-peptide fusion (C-terminal peptide) (PSI (0-1 scale)); higher = more stable (slower turnover)
Details: genetic background: wild type; temperature: 30 C
measurementKind: protein stability index

residueCodes | readoutValue
LWFRGGYLFFVV | 0.265
ERANMSRGNQTE | 0.687
GLVSGGFYFGLL | 0.681
FTLRFGYISDLD | 0.736
LEYLGFSLSGFR | 0.724
VFFLHGLVIYED | 0.563
GGLICRQGVGRG | 0.748
VRGRLGGGVGRA | 0.686
ASFSLSPFLPFS | 0.685
VWLAWCIVGGLG | 0.428
QTLQHLQTPSIS | 0.761
VTVWVFVFLRGL | 0.374

* * *

protein stability index values, listed per item
Tested on: Saccharomyces cerevisiae
Assay: protein stability index of tFT-peptide fusion (C-terminal peptide) (PSI (0-1 scale)); higher = more stable (slower turnover)
Conditions: genetic background: wild type; temperature: 30 C

residueCodes | protein stability index
REAFVVLAVFFH | 0.328
SSLLSLPLRCSF | 0.717
PMPPPPPACSLD | 0.777
GWGGGGGAGGSV | 0.683
EVLQGNHHPRPE | 0.716
LPLYPFGLLLPL | 0.686

Where these numbers come from: the supplement of paper PMC10724198
